Measured [35S]GTPγS IC50 (GRO-α) by item
Target: T1, Human CXCR2 (human, UniProt P25025 1-360)
T1 sequence: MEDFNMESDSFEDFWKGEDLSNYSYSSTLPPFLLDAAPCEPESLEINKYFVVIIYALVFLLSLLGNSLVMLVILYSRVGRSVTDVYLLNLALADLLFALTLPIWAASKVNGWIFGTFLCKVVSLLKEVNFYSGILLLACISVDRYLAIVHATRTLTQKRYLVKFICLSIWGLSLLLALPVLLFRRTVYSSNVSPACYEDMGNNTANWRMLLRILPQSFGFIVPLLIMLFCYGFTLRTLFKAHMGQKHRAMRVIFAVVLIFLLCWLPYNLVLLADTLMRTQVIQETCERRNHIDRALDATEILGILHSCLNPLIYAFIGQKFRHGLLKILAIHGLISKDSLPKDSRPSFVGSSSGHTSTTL
Test: cell-based or functional assay
TEST_READOUT: [35S]GTPγS IC50 (GRO-α) (nM)

BINDER: CXCR20033 (bispecific antibody, Biparatopic: two VHH joined by a GlySer linker; also called 163E3-35GS-2B2; 163E3-2B2; not shown: C-terminal c-myc tag and His6 tag coded by pAX100) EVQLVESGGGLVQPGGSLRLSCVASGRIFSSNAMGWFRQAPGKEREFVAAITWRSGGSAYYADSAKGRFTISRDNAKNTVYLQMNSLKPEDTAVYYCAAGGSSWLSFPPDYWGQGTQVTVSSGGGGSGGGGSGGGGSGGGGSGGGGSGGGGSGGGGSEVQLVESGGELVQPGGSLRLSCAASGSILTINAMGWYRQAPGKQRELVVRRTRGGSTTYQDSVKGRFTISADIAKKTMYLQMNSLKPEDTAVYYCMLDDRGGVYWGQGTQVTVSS
UNITS: nM
REPORTED_RESULT: 1.01
--
BINDER: CXCR20034 (bispecific antibody, Biparatopic: two VHH joined by a GlySer linker; also called 163D2-35GS-2B2; 163D2-2B2; not shown: C-terminal c-myc tag and His6 tag coded by pAX100) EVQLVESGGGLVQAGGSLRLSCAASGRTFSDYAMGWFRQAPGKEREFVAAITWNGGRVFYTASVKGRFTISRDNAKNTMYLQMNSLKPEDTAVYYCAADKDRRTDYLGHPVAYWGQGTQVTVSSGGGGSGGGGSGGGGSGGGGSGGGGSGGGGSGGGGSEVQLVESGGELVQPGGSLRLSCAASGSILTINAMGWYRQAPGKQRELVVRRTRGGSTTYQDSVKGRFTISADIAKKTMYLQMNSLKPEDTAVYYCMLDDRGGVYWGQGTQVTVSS
UNITS: nM
REPORTED_RESULT: 0.995
